Test protocol: folding stability dG unfold from trypsin proteolysis; higher = more stable
Measurement kind: folding stability dG unfold (kcal/mol)
Quick note: give the figure in kcal/mol, leave out the unit.

Summary for this sequence, SAGGSAGGSAGGSVTISYNPETGTVVISSPKNKKIITINAENYTPEEILEKAKEAGIDLSAGGSAGGSAGGS [r4_49_TrMRF] : folding stability dG unfold is 0.613

# sequence SEEEIVEEPPPETRTLTLELVDPETGELVATITVSPDGTVTLTVRTPDGEEKTITVPEGMSLEEALAAALSA [r9_346_TrROS_Hall] ; its folding stability dG unfold = 3.19

# sequence SAGKKITAEELAKKIAEELGLPEDAKVEVEEVDGTIYIRVEGYVIKITVKDGEITIEIKPAPASPEALKSAG [r5_190_TrROS_Hall] ; its folding stability dG unfold = 1.53

Form: sequence = SAGMMKFPPGAKIKIVNKETGEEKEITLPEGAEVEFDEETGEVHIRVKVDGKEYRFTFKNGEIVEVEEVSAG [r5_22_TrROS_Hall] ; folding stability dG unfold = 3.23

Given item SAGGARFEFTTPEGDRVTVELETTADELRVRVTVHRENEPFTLEATFPLPPPAPPAVPADVPGPSLLLSAGG [r13_691_TrMRF] , the value recorded as its folding stability dG unfold is 2.06

Reported folding stability dG unfold of SAGMMVKVEIEFPLTLTTTEKVGTGPNGIPVFETREEIVVITFRATVPENPEEVAAAKEEAKAVAEALSSAG [r14_223_JUSTAS] : 1.8

The recorded folding stability dG unfold for SAGGSAGGSAGGKTVLISLEDLEALKKLPPGAKVKIEPIKTPEGTVYRVNVETGKIEKVPSAGGSAGGSAGG [r7_765_TrROS_Hall] is -0.24
